All values here come from paper doi:10.1101/2021.04.29.441652v1.

- Measured On: human σ2 receptor (TMEM97) (Homo sapiens, UniProt Q5BJF2)
- Sequence (Q5BJF2 whole entry): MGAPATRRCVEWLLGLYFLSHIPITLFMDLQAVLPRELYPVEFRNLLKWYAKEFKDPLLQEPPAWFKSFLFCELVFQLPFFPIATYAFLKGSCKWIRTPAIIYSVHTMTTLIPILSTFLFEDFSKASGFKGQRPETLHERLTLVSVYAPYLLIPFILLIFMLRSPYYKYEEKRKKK
- Experiment Description: biochemical
- Format: Expi293 membranes
- Test Conditions: read-out: % of control remaining
Recorded remaining activity at 1 µM, one value per entry.
Expressed in %, but write only the number.

For orientation, consider the following solved cases.
In [3]: df
Out[3]:
                                   molecule                               measured_on  measure_unit  reading
0  O=C(CN1CC[C@]2(CCOC2)C1)N[C@@H](Cc1ccccc1)c1ccccc1 [ZINC000153400973]  human σ2 receptor (TMEM97) (Homo sapiens, UniProt Q5BJF2)             %     99.4
1  CC[C@@]1(NCC(=O)Nc2ccc(C)cc2Br)CCOC1 [ZINC000683045155]  human σ2 receptor (TMEM97) (Homo sapiens, UniProt Q5BJF2)             %      108

Turning now to a further molecule:
Query string: Kindly state the measured remaining activity at 1 µM obtained for CCC[C@@H]1C[C@H]1C(=O)NCC1(O)CN(C(=O)C2CN(C(C)=O)C2)C1 [ZINC001046261579] with human σ2 receptor (TMEM97) (Homo sapiens, UniProt Q5BJF2).
Result string: 114

###

Reported remaining activity at 1 µM values for the following compounds.
- Measured On: human σ2 receptor (TMEM97) (Homo sapiens)
- Experiment Description: biochemical
- Type: Expi293 membranes
- Test Conditions: read-out: % of control remaining
State just the number; it will be interpreted in %.

Examples with their reported remaining activity at 1 µM follow.
>>> print(df.to_string())
                                   compound                               measured_on  measure_unit  reading
0  C[C@@H]1CCC[C@H](CCN2CCC([C@H](O)c3ncc[nH]3)CC2)C1 [ZINC000839577413]  human σ2 receptor (TMEM97) (Homo sapiens)             %     28.7
1  Cc1cccc2sc(N3CCN(CCO)[C@H](C)C3)nc12 [ZINC000893277758]  human σ2 receptor (TMEM97) (Homo sapiens)             %     95.1

Please look at the following compound next.
Query string: remaining activity at 1 µM for C[C@@H]1CCCN1CC(=O)NCC(=O)N[C@H](C)c1ccc(F)cc1 [ZINC000245453841] ?
Result string: 114

###

- Measured On: human σ2 receptor (TMEM97) (Homo sapiens, UniProt Q5BJF2)
- Experiment Description: biochemical
- Type: Expi293 membranes
- Test Conditions: read-out: % of control remaining
Measurement Name: remaining activity at 1 µM (%)
Answer with a number only, understood to be in %.

Query string: Form field: reported remaining activity at 1 µM of C[C@@H]1COCC[C@@H]1NCCc1c[nH]c2cccc(Br)c12 [ZINC000289897491]
Result string: 51

Query string: What value of remaining activity at 1 µM has been recorded for this entry: Cc1ccc(C[C@H](CO)NCc2cccc(F)c2)cc1C [ZINC000453607577]
Result string: 86.8

Query string: Need remaining activity at 1 µM, item C[C@@H](Cc1ccc2c(c1)CCCC2)N[C@H]1CCN(C2CCOCC2)C1=O [ZINC000657922756]
Result string: 1.7

Query string: Recorded remaining activity at 1 µM for CN1CCCC[C@@H]1C(=O)NCC1(O)CN(C(=O)CCc2cn[nH]c2)C1 [ZINC001043772717] , please?
Result string: 116
